system: P. falciparum (3D7 strain) invasion of human RBCs; assay: Invasion inhibition assay by 3H-hypoxanthine incorporation method; assay type: cell-based, Plasmodium falciparum; settings: 3H-hypoxanthine incorporation method; mean of three experiments±standard error; read-out: IC50 (50% inhibition in the parasite invasion of RBCs)
pIC50: −log10 of the molar value.

{"residue_sequence": "DRILLLFKPPKYHPDVPYVK [Peptide 6A, Synthetic human Band 3 peptide, amino acid 807-826]", "system_name": "P. falciparum (3D7 strain) invasion of human RBCs", "pIC50": 3.50}
{"residue_sequence": "GKASTPGAAAQIQEVKEQRI [Peptide 5C, Synthetic human Band 3 peptide, amino acid 742-761]", "system_name": "P. falciparum (3D7 strain) invasion of human RBCs", "pIC50": 3.23}
